target: purified recombinantly expressed human SSAO (Homo sapiens); experiment: SSAO enzyme inhibition assay (benzylamine substrate; hydrogen peroxide/HRP-coupled or 14C aldehyde detection); conditions: SSAO inhibitory activity, RT
Sequence (Q16853 whole entry): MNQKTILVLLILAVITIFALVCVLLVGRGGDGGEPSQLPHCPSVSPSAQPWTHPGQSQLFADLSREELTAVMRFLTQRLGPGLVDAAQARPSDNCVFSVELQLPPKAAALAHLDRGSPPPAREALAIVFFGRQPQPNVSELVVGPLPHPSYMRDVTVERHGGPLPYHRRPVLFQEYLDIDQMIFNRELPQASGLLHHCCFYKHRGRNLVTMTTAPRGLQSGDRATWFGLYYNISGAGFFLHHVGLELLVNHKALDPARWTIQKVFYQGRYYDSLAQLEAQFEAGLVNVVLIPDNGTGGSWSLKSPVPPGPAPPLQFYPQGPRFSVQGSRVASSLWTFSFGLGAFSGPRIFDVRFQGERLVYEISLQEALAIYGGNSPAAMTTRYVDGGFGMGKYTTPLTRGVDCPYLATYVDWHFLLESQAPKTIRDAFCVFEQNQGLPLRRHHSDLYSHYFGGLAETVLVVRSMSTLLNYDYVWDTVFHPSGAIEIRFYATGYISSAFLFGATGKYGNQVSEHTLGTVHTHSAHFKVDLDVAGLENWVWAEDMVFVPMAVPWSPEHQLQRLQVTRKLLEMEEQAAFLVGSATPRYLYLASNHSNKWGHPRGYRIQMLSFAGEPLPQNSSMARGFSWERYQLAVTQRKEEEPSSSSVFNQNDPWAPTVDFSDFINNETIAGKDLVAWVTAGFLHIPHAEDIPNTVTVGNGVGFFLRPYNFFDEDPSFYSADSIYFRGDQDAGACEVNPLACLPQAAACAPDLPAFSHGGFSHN
pIC50: −log10 of the molar value.
Item-by-item account of pIC50

Examples with answers:
CN(C)c1ncc(-c2cc3ccncc3n2-c2ccc(Cl)cc2)cn1 ... > 7.30
Cn1cc(-c2nc3ccncc3n2-c2ccc(Cl)cc2)ccc1=O ... 5.92 to 6.70
CC(=O)N1CCCN(c2ccc(-c3nc4ccncc4n3-c3ccc(F)cc3)cn2)CC1 ... > 7.30
Fc1ccc(-n2c(-c3cnc(N4CCOCC4)nc3)nc3ccncc32)cc1 ... > 7.30
Clc1ccc(-n2c(-c3cnc(NC4CCOCC4)cn3)nc3ccncc32)cc1 ... 6.70 to 7.30

Kindly review the next molecule as well.
Q: // returns reported pIC50 for input Cc1cnccc1-c1cc2ccncc2n1-c1ccc(Cl)cc1
A: > 7.30
